test system: F1 hybrid maize plants; assay: efficacy field trial with segregating F1 hybrid plants; type: in vivo; settings: CTP A; 2,4-D amine 2× at VE-V2 (plus quizalofop-P 0.5×), V4, V8
metricName: % Injury from V8 2,4-D

Q) For the molecule MON-HT2: engineered oxygenase protein, amino acid sequence SEQ ID NO:18 (protein) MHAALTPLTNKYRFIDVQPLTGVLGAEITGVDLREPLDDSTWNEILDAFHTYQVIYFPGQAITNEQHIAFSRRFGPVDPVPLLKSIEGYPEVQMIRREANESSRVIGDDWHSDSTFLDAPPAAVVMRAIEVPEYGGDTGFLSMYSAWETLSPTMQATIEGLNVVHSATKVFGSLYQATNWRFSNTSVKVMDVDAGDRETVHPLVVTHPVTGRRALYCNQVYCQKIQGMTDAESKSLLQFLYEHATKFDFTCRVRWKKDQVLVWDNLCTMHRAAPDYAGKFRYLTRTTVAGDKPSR , give its measured % Injury from V8 2,4-D value.
A) 34.17%
